Ref: the supplement of paper PMC10567573

B1: BCL2L13 (parent)
chain: YIIQQGGWGTVFSLESEEEEYPGI

Variants of: B1
Protocol description: protein stability index of a GFP-peptide fusion (GPS, HEK-293T) (PSI 1-6); higher = more stable;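 further: lentivirally expressed fusions sorted by FACS into six bins by GFP to DsRed ratio, PSI derived from sequencing read proportions per bin multiplied by bin number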
Settings: c terminus: a fixed tail appended
Quick list: protein stability index per entry.
Answer with a bare number; do not write a unit.

get_value(item= E20I , readout=protein stability index) returns 3.47
